# tested.on: Pyruvate kinase PKM (Homo sapiens)
# assay.method.text: Activation of recombinant human PKM2 incubated for 40 mins by pyruvate kinase assay
quantity.name: AC50

Study these solved cases before continuing.
{"chemical.structure": "C=C1C(=O)O[C@H]2[C@H]1CC/C(COC(=O)NCCN(C)C)=C\\CC[C@@]1(C)O[C@@H]21", "tested.on": "Pyruvate kinase PKM (Homo sapiens)", "AC50": "> 3000 nM"}
{"chemical.structure": "C=C1C(=O)O[C@H]2[C@H]1CC/C(COC(=O)NCCN(CC)CC)=C\\CC[C@@]1(C)O[C@@H]21", "tested.on": "Pyruvate kinase PKM (Homo sapiens)", "AC50": "> 3000 nM"}
{"chemical.structure": "C=C1C(=O)O[C@H]2[C@H]1CC/C(COC(=O)N1CCN(C)CC1)=C\\CC[C@@]1(C)O[C@@H]21", "tested.on": "Pyruvate kinase PKM (Homo sapiens)", "AC50": "567 nM"}
{"chemical.structure": "C=C1C(=O)O[C@H]2[C@H]1CC/C(COC(=O)NOC)=C\\CC[C@@]1(C)O[C@@H]21", "tested.on": "Pyruvate kinase PKM (Homo sapiens)", "AC50": "> 3000 nM"}
{"chemical.structure": "C=C1C(=O)O[C@H]2[C@H]1CC/C(CNS(=O)(=O)c1ccc([N+](=O)[O-])cc1)=C\\CC[C@@]1(C)O[C@@H]21", "tested.on": "Pyruvate kinase PKM (Homo sapiens)", "AC50": "966 nM"}

Sample "C=C1C(=O)O[C@H]2[C@H]1CC/C(COC)=C\CC[C@@]1(C)O[C@@H]21" — what was its AC50?
> 3000 nM

Sample "C=C1C(=O)O[C@H]2[C@H]1CC/C(CNS(=O)(=O)CC)=C\CC[C@@]1(C)O[C@@H]21" — what was its AC50?
> 3000 nM

Sample "C=C1C(=O)O[C@H]2[C@H]1CC/C(CNS(=O)(=O)c1ccc(OC)cc1)=C\CC[C@@]1(C)O[C@@H]21" — what was its AC50?
492 nM

----------
# Tested on: T-cell
# assay.method.text: Antiproliferative activity against concanavalin A-stimulated C57BL/6 mouse T cells measured after 48 hrs by CCK8 assay
# Assay type: functional, cell-based
# test.context: C57BL/6, T-cell
quantity.name: IC50 (nM)
Give the quantity in nM, number only.

Study these solved cases before continuing.
{"chemical.structure": "C/C1=C\\CC[C@@]2(C)O[C@H]2[C@H]2OC(=O)/C(=C/c3cccc4ccccc34)[C@@H]2CC1", "IC50 [nM]": 4530}
{"chemical.structure": "C=C1C(=O)O[C@H]2[C@H]1CC/C(COC(=O)NOC)=C\\CC[C@@]1(C)O[C@@H]21", "IC50 [nM]": 2340}
{"chemical.structure": "C=C1C(=O)O[C@H]2[C@H]1CC/C(COC(=O)N1CCN(C)CC1)=C\\CC[C@@]1(C)O[C@@H]21", "IC50 [nM]": 1040}

# context switch: different molecule, same IC50
What measured IC50 is associated with "C=C1C(=O)O[C@H]2[C@H]1CC/C(COC(=O)NC)=C\CC[C@@]1(C)O[C@@H]21" on T-cell?
2600

----------
# Tested on: T-cell
# assay.method.text: Antiproliferative activity against concanavalin A-stimulated C57BL/6 mouse T cells measured after 48 hrs by CCK8 assay
# Type: functional, cell-based
# test.context: C57BL/6, T-cell
quantity.name: IC50 (µM)
Give the quantity in µM, number only.

Sample "C=C1C(=O)O[C@H]2[C@H]1CC/C(CNS(=O)(=O)c1ccccc1)=C\CC[C@@]1(C)O[C@@H]21" — what was its IC50?
1.2

Sample "C=C1C(=O)O[C@H]2[C@H]1CC/C(CO)=C\CC[C@@]1(C)O[C@@H]21" — what was its IC50?
1.59

Sample "COc1ccc(/C=C2/C(=O)O[C@H]3[C@H]2CC/C(C)=C/CC[C@@]2(C)O[C@@H]32)cc1" — what was its IC50?
4.6

Sample "C=C1C(=O)O[C@H]2[C@H]1CC/C(COC)=C\CC[C@@]1(C)O[C@@H]21" — what was its IC50?
2.33

----------
# tested.on: Pyruvate kinase PKM (Homo sapiens, UniProt P14618)
# Sequence (P14618 whole entry): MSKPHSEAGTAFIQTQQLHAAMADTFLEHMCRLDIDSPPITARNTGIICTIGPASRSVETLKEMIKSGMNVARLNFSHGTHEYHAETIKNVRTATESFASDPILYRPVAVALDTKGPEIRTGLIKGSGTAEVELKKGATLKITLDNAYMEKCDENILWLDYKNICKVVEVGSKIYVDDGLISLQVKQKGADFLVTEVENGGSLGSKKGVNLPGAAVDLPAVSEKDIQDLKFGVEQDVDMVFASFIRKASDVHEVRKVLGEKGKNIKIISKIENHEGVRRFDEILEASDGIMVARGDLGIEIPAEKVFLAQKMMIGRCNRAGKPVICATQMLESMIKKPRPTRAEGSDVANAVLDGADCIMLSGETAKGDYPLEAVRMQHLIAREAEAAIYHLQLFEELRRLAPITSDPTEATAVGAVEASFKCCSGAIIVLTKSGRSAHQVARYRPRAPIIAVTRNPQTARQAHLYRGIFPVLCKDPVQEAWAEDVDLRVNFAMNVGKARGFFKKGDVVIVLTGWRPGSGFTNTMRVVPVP
# assay.method.text: Activation of recombinant human PKM2 incubated for 40 mins by pyruvate kinase assay
quantity.name: AC50 (nM)
Give the quantity in nM, number only.

Study these solved cases before continuing.
{"chemical.structure": "C=C1C(=O)O[C@H]2[C@H]1CC/C(CNS(=O)(=O)c1ccccc1)=C\\CC[C@@]1(C)O[C@@H]21", "tested.on": "Pyruvate kinase PKM (Homo sapiens, UniProt P14618)", "quantity.name": "AC50", "number": 637}
{"chemical.structure": "C=C1C(=O)O[C@H]2[C@H]1CC/C(CO)=C\\CC[C@@]1(C)O[C@@H]21", "tested.on": "Pyruvate kinase PKM (Homo sapiens, UniProt P14618)", "quantity.name": "AC50", "number": 867}
{"chemical.structure": "C=C1C(=O)O[C@H]2[C@H]1CC/C(COC(=O)N(C)C)=C\\CC[C@@]1(C)O[C@@H]21", "tested.on": "Pyruvate kinase PKM (Homo sapiens, UniProt P14618)", "quantity.name": "AC50", "number": 1570}

What measured AC50 is associated with "C=C1C(=O)O[C@H]2[C@H]1CC/C(COC(=O)NCCC)=C\CC[C@@]1(C)O[C@@H]21" on Pyruvate kinase PKM (Homo sapiens, UniProt P14618)?
812

What measured AC50 is associated with "C=C1C(=O)O[C@H]2[C@H]1CC/C(COC(=O)N1CCCC1)=C\CC[C@@]1(C)O[C@@H]21" on Pyruvate kinase PKM (Homo sapiens, UniProt P14618)?
736

----------
The following molecules are shown together with reported AC50 values.
# tested.on: UniProt P14618
# assay.method.text: Activation of recombinant human PKM2 incubated for 40 mins by pyruvate kinase assay
Give the quantity in nM, number only.

Study these solved cases before continuing.
{"molecule": "C=C1C(=O)O[C@H]2[C@H]1CC/C(COC(F)(F)F)=C\\CC[C@@]1(C)O[C@@H]21", "tested.on": "UniProt P14618", "AC50, nM": 144}
{"molecule": "C=C1C(=O)O[C@H]2[C@H]1CC/C(CNS(=O)(=O)c1ccc(F)cc1)=C\\CC[C@@]1(C)O[C@@H]21", "tested.on": "UniProt P14618", "AC50, nM": 1230}
{"molecule": "C=C1C(=O)O[C@@H]2C3O[C@]3(C)CC/C=C(\\C)CC[C@@H]12 (stereo partly drawn)", "tested.on": "UniProt P14618", "AC50, nM": 1060}
{"molecule": "C=C1C(=O)O[C@H]2[C@H]1CC/C(COC(=O)NCC)=C\\CC[C@@]1(C)O[C@@H]21", "tested.on": "UniProt P14618", "AC50, nM": 2220}

Sample "C=C1C(=O)O[C@H]2[C@H]1CC/C(COC(=O)N(CCC)CCC)=C\CC[C@@]1(C)O[C@@H]21" — what was its AC50?
660

----------
# tested.on: Pyruvate kinase PKM (Homo sapiens, UniProt P14618)
# assay.method.text: Binding affinity to PKM2 (unknown origin) assessed as dissociation constant by SPR analysis
quantity.name: Kd (µM)
Give the quantity in µM, number only.

Sample "C=C1C(=O)O[C@H]2[C@H]1CC/C(COC(F)(F)F)=C\CC[C@@]1(C)O[C@@H]21" — what was its Kd?
2.48

----------
# Test system: T-cell
# assay.method.text: Antiproliferative activity against concanavalin A-stimulated C57BL/6 mouse T cells measured after 48 hrs by CCK8 assay
# Format: functional, cell-based
# test.context: C57BL/6, T-cell
So basically: is IC50 under 2000 nM? Then y. Not under? Then n.

{"chemical.structure": "C=C1C(=O)O[C@H]2[C@H]1CC/C(CNS(=O)(=O)c1ccc(OC)cc1)=C\\CC[C@@]1(C)O[C@@H]21", "discrete.label": "y"}

Report whether reported IC50 is lower than 2000 nM (strictly) for "C=C1C(=O)O[C@H]2[C@H]1C[C@@H](F)/C(C)=C/CC[C@@]1(C)O[C@@H]21"
n

Report whether reported IC50 is lower than 2000 nM (strictly) for "C=C1C(=O)O[C@H]2[C@H]1CC/C(CNS(=O)(=O)C1CC1)=C\CC[C@@]1(C)O[C@@H]21"
n

Report whether reported IC50 is lower than 2000 nM (strictly) for "C=C1C(=O)O[C@H]2[C@H]1CC/C(COC(=O)NCCN(C)C)=C\CC[C@@]1(C)O[C@@H]21"
n

----------
# tested.on: Pyruvate kinase PKM (Homo sapiens, UniProt P14618)
# assay.method.text: Activation of recombinant human PKM2 incubated for 40 mins by pyruvate kinase assay
quantity.name: AC50

Sample "C=C1C(=O)O[C@H]2[C@H]1CC/C(COC(=O)NC)=C\CC[C@@]1(C)O[C@@H]21" — what was its AC50?
> 3 µM

Sample "C=C1C(=O)O[C@H]2[C@H]1C[C@@H](F)/C(C)=C/CC[C@@]1(C)O[C@@H]21" — what was its AC50?
> 3 µM

Sample "C=C1C(=O)O[C@H]2[C@H]1CC/C(CNS(=O)(=O)C1CC1)=C\CC[C@@]1(C)O[C@@H]21" — what was its AC50?
> 3 µM

FYI, the data here is from ChEMBL document CHEMBL5550146.
